Tested on: A549 (lung) cancer cells
Test: MTT cytotoxicity assay, A549
Details: read-out: In Vitro Cytotoxicity IC50, A549; MTT, 48 h treatment
We begin with a simple list: items and their reported IC50.
observed-property: IC50 (µM)

1. FC(F)(F)c1cccc(Nc2ccccc2C2=[O+][Ru-4]34([O]2)([n+]2ccccc2-c2cccc[n+]23)[P+](c2ccccc2)(c2ccccc2)CCC[P+]4(c2ccccc2)c2ccccc2)c1.F[P-](F)(F)(F)(F)F [complex 4, [Ru(FFen)(bipy)(dppp)]PF6] | 6.87
2. Cc1cccc(Nc2ccccc2C2=[O+][Ru-4]34([O]2)([n+]2ccccc2-c2cccc[n+]23)[P+](c2ccccc2)(c2ccccc2)CCC[P+]4(c2ccccc2)c2ccccc2)c1C.F[P-](F)(F)(F)(F)F [complex 2, [Ru(MFen)(bipy)(dppp)]PF6] | 4.57
3. F[P-](F)(F)(F)(F)F.c1ccc(Nc2ccccc2C2=[O+][Ru-4]34([O]2)([n+]2ccccc2-c2cccc[n+]23)[P+](c2ccccc2)(c2ccccc2)CCC[P+]4(c2ccccc2)c2ccccc2)cc1 [complex 1, [Ru(Fen)(bipy)(dppp)]PF6] | 3.96
4. Cc1c(Cl)cccc1Nc1ccccc1C1=[O+][Ru-4]23([O]1)([n+]1ccccc1-c1cccc[n+]12)[P+](c1ccccc1)(c1ccccc1)CCC[P+]3(c1ccccc1)c1ccccc1.F[P-](F)(F)(F)(F)F [complex 3, [Ru(TFen)(bipy)(dppp)]PF6] | 8.74
